Origin of the recorded values: patent US20220298163A1

molecular target: Btk kinase (aa2-659, Carna Biosciences) (Homo sapiens); construct: purchased Carna Biosciences; experiment: Btk kinase enzymatic assay (TR-FRET); type: biochemical; settings: TR-FRET, 30 μM ATP, compound incubated with kinase 60 minutes
Sequence (Q06187 2-659): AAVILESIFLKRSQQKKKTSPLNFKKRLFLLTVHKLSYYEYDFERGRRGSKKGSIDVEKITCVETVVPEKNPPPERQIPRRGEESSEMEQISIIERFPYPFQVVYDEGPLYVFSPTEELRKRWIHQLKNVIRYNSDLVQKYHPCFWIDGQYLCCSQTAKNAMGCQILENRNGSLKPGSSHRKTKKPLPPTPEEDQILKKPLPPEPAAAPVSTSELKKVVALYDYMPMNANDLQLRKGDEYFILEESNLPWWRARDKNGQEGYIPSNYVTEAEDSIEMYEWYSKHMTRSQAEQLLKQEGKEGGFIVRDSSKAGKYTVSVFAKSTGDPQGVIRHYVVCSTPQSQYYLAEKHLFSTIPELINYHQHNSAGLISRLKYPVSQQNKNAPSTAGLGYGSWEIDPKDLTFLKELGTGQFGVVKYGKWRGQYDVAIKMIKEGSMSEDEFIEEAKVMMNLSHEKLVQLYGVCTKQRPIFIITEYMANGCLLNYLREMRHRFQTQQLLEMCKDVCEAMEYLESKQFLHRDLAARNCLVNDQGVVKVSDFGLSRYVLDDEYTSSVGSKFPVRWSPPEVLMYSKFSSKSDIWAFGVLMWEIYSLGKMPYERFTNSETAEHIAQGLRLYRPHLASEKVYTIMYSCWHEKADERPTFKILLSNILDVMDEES
MEASUREMENT_TYPE: IC50 (nM)

Study these solved cases before continuing.
>>> print(df.to_string())
                                   compound  measurement_type  quantitative_readout
0  C=CC(=O)N1CCC(C2CCNc3c(C(N)=O)c(-c4cc(Cl)c(Br)c(OC(F)(F)F)c4)nn32)CC1 (centres unmarked) [Example A26]              IC50                    41
1  C=CC(=O)N1CC(C2CCNc3c(C(N)=O)c(-c4cc(Cl)c(C)c(Cl)c4)nn32)C1 (centres unmarked) [Example B1]              IC50                    13
2  C=CC(=O)N1CCC(C2CCNc3c(C(N)=O)c(-c4cc(C)c(C5CC5)c(C)c4)nn32)CC1 (centres unmarked) [Example A29]              IC50                    16

1: C#CC(=O)N1CCC(C2CCNc3c(C(N)=O)c(-c4cc(OC)c(C)c(OC)c4)nn32)CC1 (centres unmarked) [Example A50]
2: C=CC(=O)N1CCC(C2CCNc3c(C(N)=O)c(-c4cc(Br)c(C)c(Br)c4)nn32)CC1 (centres unmarked) [Example A16]
3: C=CC(=O)N1CC2CCC(C1)C2C1CCNc2c(C(N)=O)c(-c3cc(OC)c(C)c(OC)c3)nn21 (centres unmarked) [Example G1]
4: C=CC(=O)N1CCC(C2CCNc3c(C(N)=O)c(-c4cc(OC)c(/C=C/c5ccccc5)c(OC)c4)nn32)CC1 (centres unmarked) [Example A41]
5: C=CC(=O)N1CCC(C2CCNc3c(C(N)=O)c(-c4cc(OC)c(-c5cc[nH]n5)c(OC)c4)nn32)CC1 (centres unmarked) [Example A27]
Kindly order the items shown according to IC50, from the highest value down. State the ranking by listing the labels in the requested order.
5, 3, 2, 4, 1
(5: 18 nM, 3: 12 nM, 2: 7.1 nM, 4: 3.3 nM, 1: 0.34 nM)
